Tested on: A549
assay notes: NCI tumour cell line growth inhibition, 48 h
Activity calls are given as the source filed them. Rule as the data show it: active = GI50 up to about 1.1 µM and inactive = higher.
Reply using exactly one outcome from active, inactive

QUERY: Just curious, what result did CSc1ncnc2c1cnn2Cc1cnnn1COCC(O)CO (centres undefined) get here?
RESULT: inactive

QUERY: Just curious, what result did COCN1C(=O)[C@@H]2CCCN2C(=O)c2cc(OC)c(Cc3ccccc3)cc21 get here?
RESULT: inactive

QUERY: Just curious, what result did O=C(O)CNn1c(SCC(=O)O)nnc(/C=C/c2c(O)ccc3ccccc23)c1=O get here?
RESULT: inactive

QUERY: Just curious, what result did C#C[C@]1(O)CC[C@H]2[C@@H]3CCC4=C/C(=N/NC(=O)c5cccc6cc7ccccc7nc56)CC[C@@H]4[C@H]3CC[C@@]21CC get here?
RESULT: inactive

QUERY: Just curious, what result did CN(CCc1ccccn1)C(=S)N/N=C(\c1ccccc1)c1ccccn1 get here?
RESULT: active

QUERY: Just curious, what result did CCCCNC(=O)C1C2CCC(O2)C1C(=O)O (centres undefined) get here?
RESULT: inactive

QUERY: Just curious, what result did O=C(CSc1c2ccccc2nc2ccccc12)Nc1ccccc1-c1ccccc1NC(=O)CSc1c2ccccc2nc2ccccc12 get here?
RESULT: inactive

QUERY: Just curious, what result did CC(C)(C)c1ccc(OCCOc2ccc(C(C)(C)C)cc2N)c(N)c1 get here?
RESULT: inactive

QUERY: Just curious, what result did Cc1cc2nc(CC(C(F)(F)F)C(F)(F)F)oc2cc1C get here?
RESULT: inactive

QUERY: Just curious, what result did C=CCOC1CC(n2cnc3c(N)ncnc32)OC1CO (centres undefined) get here?
RESULT: inactive

QUERY: Just curious, what result did C/C(=N/O)c1cccc(Nc2nc3ccc(Cl)cc3c3[nH]c4ccccc4c23)c1 get here?
RESULT: inactive

QUERY: Just curious, what result did C/C(=N\N=C(/S)N(C)C)c1cccnn1 get here?
RESULT: active

QUERY: Just curious, what result did O=C(/C=C1\C[C@H]2C=Nc3ccccc3C(=O)N2C1)NCCCCCNC(=O)/C=C1\C[C@H]2C=Nc3ccccc3C(=O)N2C1 get here?
RESULT: inactive

QUERY: Just curious, what result did CS(=O)(=O)c1nc(-c2cc3c(c(S(C)(=O)=O)n2)CCCC3)cc2c1CCCCC2 get here?
RESULT: inactive

====

Tested on: IGROV-1
assay notes: NCI tumour cell line growth inhibition, 48 h
Activity calls are given as the source filed them. No stated cut-off is given here; in the data, active = GI50 up to about 1.1 µM and inactive = higher.
Answer each item with its documented GI50.

The reported GI50 of the compound Cn1c(N)c(/C=C/C(=O)Oc2ccccc2)c(=O)n(C)c1=O was 67.9 µM (inactive)

The reported GI50 of the compound COc1cc(C2C(C(=O)O)=C(COC(C)=O)Oc3cc4c(cc32)OCO4)cc(OC)c1OC(C)=O (stereo not given) was > 100 µM (inactive)

The reported GI50 of the compound CN(C)CCNC1=Nc2ccccc2C(=S)N2CSCC12 (stereo not given) was > 100 µM (inactive)

The reported GI50 of the compound Cc1cn(CCCCCCC2=NCCCN2)c(=O)[nH]c1=O was > 100 µM (inactive)

The reported GI50 of the compound O=C(/C=C\c1cccc2ccccc12)c1cccs1 was 10.3 µM (inactive)

The reported GI50 of the compound O=C(/C=C1\C[C@H]2C=Nc3ccccc3C(=O)N2C1)NCCCCCNC(=O)/C=C1\C[C@H]2C=Nc3ccccc3C(=O)N2C1 was 11 µM (inactive)

The reported GI50 of the compound COC(=O)[C@H](CC(C)C)NC1=C(Cl)C(=O)c2c(O)ccc(O)c2C1=O was > 10 µM (inactive)

The reported GI50 of the compound CN(CC(=O)Nc1ccccc1C(=O)O)c1ccccc1 was > 100 µM (inactive)

The reported GI50 of the compound Cc1cc(-c2cscn2)c(O)c([N+](=O)[O-])c1 was 55 µM (inactive)

The reported GI50 of the compound COc1ccc(-c2c(C#N)c(S)n(NS(=O)(=O)c3ccccc3)c(=O)c2C#N)cc1 was 31.9 µM (inactive)

The reported GI50 of the compound COc1ccc(NC(=O)CC(=O)N2N=C(C)C(/N=N/c3ccc(C(=O)O)cc3)C2=O)cc1 (stereo not given) was > 100 µM (inactive)

The reported GI50 of the compound Cc1ccc(F)cc1NC(=O)O/N=C(\Cl)C(C)C was 17.2 µM (inactive)

The reported GI50 of the compound CO/N=C(\C)CCC#Cc1ccccc1C(=O)OC was > 10 µM (inactive)

The reported GI50 of the compound CCCC/C=C1\CCC(CN2CCOCC2)C1=O (stereo not given) was 14.3 µM (inactive)

The reported GI50 of the compound C/C(=N\N=C(/S)N(C)C)c1cccnn1 was 0.689 µM (active)

====

System: NCI-H460
assay notes: NCI tumour cell line growth inhibition, 48 h
Calls of active or inactive are those of the source. No stated cut-off is given here; in the data, active = GI50 up to about 1.1 µM and inactive = higher.
readout name: GI50

The reported GI50 of the molecule COC(=O)C1CCC[C@H]2C(CO)=C(C)C(=O)[C@@H]12 (some centres not stated) was > 100 µM (inactive)

The reported GI50 of the molecule CCN(CC)C1Oc2cc3c(cc2C(c2cccc(OC)c2O)C1C)OCO3 (configuration not stated) was 4.24 µM (inactive)

The reported GI50 of the molecule CCOc1cnc(C(O)(c2ccccc2)c2ccccc2)o1 was > 100 µM (inactive)

The reported GI50 of the molecule Cc1ccc(S(=O)(=O)c2c(N)c3nccn3c3nc4ccccc4nc23)cc1 was > 100 µM (inactive)

The reported GI50 of the molecule O=C1OC(c2ccccc2)=N/C1=C/c1cccs1 was > 100 µM (inactive)

The reported GI50 of the molecule Cc1ccccc1C(=O)c1c(O)c2c(c(O)c1Br)CCCC2 was 22 µM (inactive)

The reported GI50 of the molecule CCOc1ccc2c(c1)[n+]([O-])c(-c1ccccc1Cl)c(N)[n+]2[O-] was > 100 µM (inactive)

====

Answer each item with its documented GI50.
Test system: U-251
assay notes: NCI tumour cell line growth inhibition, 48 h
Calls of active or inactive are those of the source. Rule as the data show it: active = GI50 up to about 1.1 µM and inactive = higher.

The reported GI50 of the molecule [N-]=[N+]=NC1(N=[N+]=[N-])C(=O)NN=C(c2ccccc2)C1=O (stereo unspecified) was > 100 µM (inactive)

The reported GI50 of the molecule O=c1nc(-c2ccccc2)scc1-c1ccccc1 was 98.6 µM (inactive)

The reported GI50 of the molecule CN(C)CCCN1c2ccc([N+](=O)[O-])cc2CCc2cc([N+](=O)[O-])ccc21 was 13.7 µM (inactive)

The reported GI50 of the molecule FC1(F)[Se]C2C3CCC(C3)C2C1(F)F (stereo unspecified) was > 100 µM (inactive)

The reported GI50 of the molecule CCCCCCc1cn([C@H]2C[C@H](O)[C@@H](CO)O2)c(=O)[nH]c1=O was > 100 µM (inactive)

The reported GI50 of the molecule O=C(/C=C1\C[C@H]2C=Nc3ccccc3C(=O)N2C1)NCCCCCNC(=O)/C=C1\C[C@H]2C=Nc3ccccc3C(=O)N2C1 was 3.03 µM (inactive)

====

Answer each item with its documented GI50.
System: K562
assay notes: NCI tumour cell line growth inhibition, 48 h
Activity calls are given as the source filed them. Rule as the data show it: active = GI50 up to about 1.1 µM and inactive = higher.

The reported GI50 of the molecule CCOC(=O)c1ccc2nc(-c3ccc(S(=O)(=O)F)cc3)cc(O)c2c1 was 42.8 µM (inactive)

The reported GI50 of the molecule Cc1csc(-n2c(C)nc3cc(Cl)ccc3c2=O)n1 was 83.6 µM (inactive)

The reported GI50 of the molecule COC(=O)c1c2c(cc3c1CC1(Cc4cc5c(c(C)c4C1)CCC5)C3)CCC2 (centres undefined) was > 100 µM (inactive)

The reported GI50 of the molecule COc1c(C)c2c(c(=O)c3c(C)cccc3n2C)c2c1c(=O)c1c(C)cccc1n2C was > 10 µM (inactive)

====

Answer each item with its documented GI50.
System: HCC 2998
assay notes: NCI tumour cell line growth inhibition, 48 h
The source made the active and inactive calls. Cut-off read from the data, not from the text of the source: active = GI50 up to about 1.1 µM and inactive = higher.

The reported GI50 of the compound CCN(CC)C1Oc2cc3c(cc2C(c2cccc(OC)c2O)C1C)OCO3 (configuration not stated) was 12.4 µM (inactive)

The reported GI50 of the compound O=CNNC(=O)CSc1nc2ccc(I)cc2c(=O)n1Cc1ccccc1 was 26.8 µM (inactive)

The reported GI50 of the compound Cc1ccc(S(=O)(=O)c2c(N)c3nccn3c3nc4ccccc4nc23)cc1 was > 100 µM (inactive)

The reported GI50 of the compound N#CCCc1nc2ccc(Br)cc2c(=O)n1-c1ccc(O)c([N+](=O)[O-])c1 was 18.6 µM (inactive)

The reported GI50 of the compound Cc1ccc(NC(=O)/C(C#N)=C/c2ccccc2)c(C)c1 was > 100 µM (inactive)

The reported GI50 of the compound CC(C)COP(C)(=O)C(N)(C(F)(F)F)C(F)(F)F (configuration not stated) was > 100 µM (inactive)

The reported GI50 of the compound Cn1c(N)c(/C=C/C(=O)Oc2ccccc2)c(=O)n(C)c1=O was > 100 µM (inactive)

The reported GI50 of the compound Cc1ccc(C(=O)O)c(CC2Cc3c(C)cccc3C2=O)c1 (configuration not stated) was > 100 µM (inactive)

The reported GI50 of the compound CC(C)C(N)C(=O)NC(CCC(=O)NCCCCC(N)C(=O)NCCCNc1ccc([N+](=O)[O-])c2[nH]c3ccccc3c(=O)c12)C(N)=O (configuration not stated) was 40.2 µM (inactive)

The reported GI50 of the compound CC1(C)CCC[C@]2(C)[C@@H]1CC[C@@]13O[C@@H]1C1=C(CO)C(=O)OC1=C[C@@H]23 was 18.9 µM (inactive)

The reported GI50 of the compound CCOC1=CP(=O)(OCC)CC(C)=C1Cl (configuration not stated) was > 100 µM (inactive)

The reported GI50 of the compound CSc1nc2c(nc(N)n2C2OCC(O)C(O)C2O)c(=O)n1C (configuration not stated) was > 100 µM (inactive)
